Below, each entry is listed alongside its reported TGI.
Tested on: OVCAR-3 ovarian
Assay name: NCI tumour cell line growth inhibition, 48 h

Some entries whose results are on file:
Compound	Experimental system	Value
c1cncc(C2c3[nH]c4ccccc4c3CCN2CCCN2CCCCC2)c1 (centres undefined)	OVCAR-3 ovarian	> 100 µM
COc1ccc(C2Oc3c(cccc3OC)C=C2[N+](=O)[O-])cc1OC (centres undefined)	OVCAR-3 ovarian	67.9 µM
O=c1c(O)c(-c2ccc(O)c(O)c2)oc2cc(O)ccc12	OVCAR-3 ovarian	62 µM
O=S(=O)(NCCNc1cc(-c2cn(-c3ccccc3)nc2-c2cccc(O)c2)ccn1)c1ccc(C(F)(F)F)cc1	OVCAR-3 ovarian	5.58 µM

The recorded TGI for entry `Cc1ccc(-c2csc(N(C(=O)N3CCN(c4cc5c(cc4F)c(=O)c(C(=O)O)cn5C4CC4)CC3)c3ccccc3)n2)cc1` equals > 100 µM

The recorded TGI for entry CSc1nc(NC2OCC(OC(C)=O)C(OC(C)=O)C2OC(C)=O)c(N=CC=Nc2c(NC3OCC(OC(C)=O)C(OC(C)=O)C3OC(C)=O)nc(SC)n(C)c2=O)c(=O)n1C (centres undefined) equals > 100 µM

The recorded TGI for entry `CCOC(=O)Cn1c(=O)c2nc(SC)sc2n(-c2ccc(C)cc2)c1=S` equals > 100 µM

The recorded TGI for entry `COC(=O)CCc1ccc2c(c1)CCC2` equals > 100 µM

The recorded TGI for entry `COc1ccc2cc(C(=O)c3ccccc3C(=O)O)ccc2c1` equals > 100 µM

====

Below, each entry is listed alongside its reported TGI.
Test system: KM12 colon
Assay name: NCI tumour cell line growth inhibition, 48 h

> print(dat)
                                chem.smiles  experimental.system  test.readout     value
1  CC[O-].CC[O-].[O-]c1ccccc1C=Nc1ccccc1.[O-]c1ccccc1C=Nc1ccccc1.[Ti+4]           KM12 colon           TGI  > 100 µM
2  COc1cc2[nH]c(C(=O)c3cc(OC)c(OC)c(OC)c3)c(N)c2cc1C#CCO           KM12 colon           TGI  > 100 µM

// below: TGI requested for another compound
The recorded TGI for entry `O=C(Sc1c(-c2ccccc2)c(=O)n(-c2ccccc2)c(=S)n1-c1ccccc1)c1ccc(Cl)cc1` equals > 100 µM

====

Tested on: SK-MEL-28 melanoma
Assay name: NCI tumour cell line growth inhibition, 48 h
Below, each entry is listed alongside its reported TGI.

Compound	TGI
O=C(O)C1C2C=CC(O2)C1C(=O)Nc1ccccc1 (centres undefined)	> 100 µM
COC(C)(C)C(O)C(O)C[C@H](C)C1CC=C2C1(C)CCC1[C@@]3(C)CCC(OC(C)=O)C(C)(C)C3CC(OC3OC(COC(C)=O)C(O)C(O)C3O)[C@@]21C (some centres undefined)	> 10 µM
COC(=O)c1cc(C#N)[nH]c1-c1ccsc1	> 100 µM
COC(=O)[C@@H]1O[C@]12C(CO[Si](C)(C)C(C)(C)C)OC(n1ccc(=O)[nH]c1=O)C2O[Si](C)(C)C(C)(C)C (some centres undefined)	59 µM
O=C(O)CN1CCNCCN(CC(=O)O)CC1	> 100 µM
C[C@H]1CCC/C=C/[C@@H]2C[C@H](O)C[C@H]2[C@H](O)[C@H](S(=O)c2ccc(O)cc2)CC(=O)O1 (some centres undefined)	> 100 µM
CC1CCCOc2ccc(cc2)C=Nc2ccc(cc2)CCc2ccc(cc2)N=Cc2ccc(cc2)OCCC1 (centres undefined)	> 100 µM
COc1ccc(NC(=O)C(=O)C(CC2C(=O)NC(=S)NC2=O)C(=O)c2ccc3ccccc3c2)c([N+](=O)[O-])c1 (centres undefined)	> 100 µM
NC(=S)SCCC(=O)O	> 100 µM
O=C1CN(c2cccc(C(F)(F)F)c2)C(=O)CN1NCNN1CC(=O)N(c2cccc(C(F)(F)F)c2)CC1=O	> 100 µM

Reading of TGI for `COc1cc2[nH]c(C(=O)c3cc(OC)c(OC)c(OC)c3)c(N)c2cc1C#CCO` with SK-MEL-28 melanoma: > 100 µM

Reading of TGI for `Nn1c(CCCl)nc2c(Br)cc(Br)cc2c1=O` with SK-MEL-28 melanoma: > 100 µM

Reading of TGI for `C[C@H](c1ccc(Cl)cc1N)N1C(=O)c2cc(I)ccc2N(CCCN2CCN(C)CC2)C(=O)[C@@H]1c1ccc(Cl)cc1` with SK-MEL-28 melanoma: 3.08 µM

Reading of TGI for `C/C(=N\O)c1sc(-n2nc(-c3ccccc3)cc2-c2ccccc2)nc1C` with SK-MEL-28 melanoma: 17.8 µM
